- testMethodNotes: Phase 1 SAD/MAD pharmacokinetics of oral ATI-450 in healthy subjects (incl. 80/120 mg BID extension)
- Format: in vivo, human
- measurementConditions: both sexes, human, plasma, oral, 80 mg, 80 mg BID, day 7; read-out: AUC0-24, total daily exposure calculated as AUC0-12 × 2
valueType: AUC(0-t) (ng·h/mL)
Report the figure in ng·h/mL without appending any unit label.

Prompt line: State its AUC(0-t): Cc1cnc(-c2ccnc(C(C)(C)O)n2)cc1-n1c(C)cc(OCc2ncc(F)cc2F)c(Cl)c1=O (single isomer, unassigned)
Response line: 5100

---

- Test system: TNF-α
- testMethodNotes: Porcine whole blood LPS stimulated TNF-α assay
- Type: cell-based
- measurementConditions: Sus scrofa, Pig Whole Blood, 10 µg/mL, 4 hr
valueType: pIC50
Quick note: pIC50 values are minus log10 of concentrations in mol/L.

Prompt line: Please indicate pIC50 recorded for Cc1cnc(-c2ccnc(C(C)(C)O)n2)cc1-n1c(C)cc(OCc2ncc(F)cc2F)c(Cl)c1=O (single isomer, unassigned) [ATI-450]
Response line: 8.13

---

- testMethodNotes: Phase 1 SAD/MAD pharmacokinetics of oral ATI-450 in healthy subjects (incl. 80/120 mg BID extension)
- Type: in vivo, human
- measurementConditions: both sexes, human, plasma, oral, 120 mg, 120 mg BID, day 5; read-out: Ctrough
valueType: concentration at 5 day (ng/mL)
Please reply with the bare figure in ng/mL and do not write the unit itself.

Prompt line: Provide one value: measured concentration at 5 day of Cc1cnc(-c2ccnc(C(C)(C)O)n2)cc1-n1c(C)cc(OCc2ncc(F)cc2F)c(Cl)c1=O (single isomer, unassigned)
Response line: 145

---

- testMethodNotes: Phase 1 SAD/MAD pharmacokinetics of oral ATI-450 in healthy subjects (incl. 80/120 mg BID extension)
- Assay type: in vivo, human
- measurementConditions: both sexes, human, plasma, oral; 80 mg BID, day 7; read-out: Vss/F
valueType: Vd/F (L)
Give the quantity in L, number only.

Prompt line: Give reported Vd/F value for Cc1cnc(-c2ccnc(C(C)(C)O)n2)cc1-n1c(C)cc(OCc2ncc(F)cc2F)c(Cl)c1=O (single isomer, unassigned)
Response line: 690

---

- testMethodNotes: 13-week oral administration non-clinical safety study, mini-pig
- Format: in vivo
- measurementConditions: female, minipig, in vivo; 60 mg/kg/day oral, study day 90, females
valueType: Cmax

Prompt line: Supply recorded Cmax for Cc1cnc(-c2ccnc(C(C)(C)O)n2)cc1-n1c(C)cc(OCc2ncc(F)cc2F)c(Cl)c1=O (single isomer, unassigned) here.
Response line: 2360 ng/mL

---

- testMethodNotes: Phase 1 SAD/MAD pharmacokinetics of oral ATI-450 in healthy subjects (incl. 80/120 mg BID extension)
- Assay type: in vivo, human
- measurementConditions: both sexes, human, plasma, oral, 120 mg, 120 mg BID, day 7; read-out: AUC0-24, total daily exposure calculated as AUC0-12 × 2
valueType: AUC(0-t) (ng·h/mL)
// note: answer is a bare numeric in ng·h/mL

Prompt line: Look up and state reported AUC(0-t) for Cc1cnc(-c2ccnc(C(C)(C)O)n2)cc1-n1c(C)cc(OCc2ncc(F)cc2F)c(Cl)c1=O (single isomer, unassigned) [ATI-450]
Response line: 5160

---

- testMethodNotes: Phase 1 SAD/MAD pharmacokinetics of oral ATI-450 in healthy subjects (incl. 80/120 mg BID extension)
- Format: in vivo, human
- measurementConditions: both sexes, human, plasma, oral, 120 mg, 120 mg BID, day 7; read-out: AUC0-t
valueType: AUC(0-t) (ng·h/mL)
Numbers only; they are read as ng·h/mL.

Prompt line: Entry Cc1cnc(-c2ccnc(C(C)(C)O)n2)cc1-n1c(C)cc(OCc2ncc(F)cc2F)c(Cl)c1=O (single isomer, unassigned) [ATI-450] needs its AUC(0-t) filled in; supply it.
Response line: 4170

---

- testMethodNotes: Phase 1 SAD/MAD pharmacokinetics of oral ATI-450 in healthy subjects (incl. 80/120 mg BID extension)
- Assay type: in vivo, human
- measurementConditions: both sexes, human, plasma, oral, 50 mg, 50 mg BID, day 7; read-out: Cmax
valueType: Cmax (ng/mL)
API: value field is a number in ng/mL; no unit string.

Prompt line: Answer with reported Cmax of Cc1cnc(-c2ccnc(C(C)(C)O)n2)cc1-n1c(C)cc(OCc2ncc(F)cc2F)c(Cl)c1=O (single isomer, unassigned)
Response line: 219

---

- testMethodNotes: Phase 1 SAD/MAD pharmacokinetics of oral ATI-450 in healthy subjects (incl. 80/120 mg BID extension)
- Assay type: in vivo, human
- measurementConditions: both sexes, human, plasma, oral, 120 mg, 120 mg BID, day 1; read-out: Tmax, median (min, max)
valueType: Tmax (h)
Give a bare numeral; the unit h is implied.

Prompt line: For Cc1cnc(-c2ccnc(C(C)(C)O)n2)cc1-n1c(C)cc(OCc2ncc(F)cc2F)c(Cl)c1=O (single isomer, unassigned) , write its Tmax.
Response line: 3

---

- testMethodNotes: Phase 1 SAD/MAD pharmacokinetics of oral ATI-450 in healthy subjects (incl. 80/120 mg BID extension)
- Type: in vivo, human
- measurementConditions: both sexes, human, plasma, oral; 50 mg BID, day 7; read-out: Vss/F
valueType: Vd/F

Prompt line: State its Vd/F: Cc1cnc(-c2ccnc(C(C)(C)O)n2)cc1-n1c(C)cc(OCc2ncc(F)cc2F)c(Cl)c1=O (single isomer, unassigned)
Response line: 586 L

---

- System: IL-1β
- testMethodNotes: LPS stimulated IL-1β production in human whole blood
- Type: cell-based
- measurementConditions: Human Whole Blood; LPS, 100 ng/mL, 4 or 24 hr; read-out: IC50, IL-1β
valueType: pIC50
Value format note: pIC50 is -log10 of concentration (mol/L); just state the number.

Prompt line: Report measured pIC50; entry is Cc1cnc(-c2ccnc(C(C)(C)O)n2)cc1-n1c(C)cc(OCc2ncc(F)cc2F)c(Cl)c1=O (single isomer, unassigned) [ATI-450]
Response line: 8.21

---

- testMethodNotes: 13-week oral administration non-clinical safety study, mini-pig
- Format: in vivo
- measurementConditions: male, minipig, in vivo; 60 mg/kg/day oral, study day 90, males; read-out: AUC0-24
valueType: AUC(0-t) (ng·h/mL)
Just the number in ng·h/mL, nothing appended.

Prompt line: Please give measured AUC(0-t) of the following entry: Cc1cnc(-c2ccnc(C(C)(C)O)n2)cc1-n1c(C)cc(OCc2ncc(F)cc2F)c(Cl)c1=O (single isomer, unassigned)
Response line: 14400

---

- testMethodNotes: Phase 1 SAD/MAD pharmacokinetics of oral ATI-450 in healthy subjects (incl. 80/120 mg BID extension)
- Type: in vivo, human
- measurementConditions: both sexes, human, plasma, oral, 50 mg, 50 mg BID, day 7; read-out: Tmax, median (min, max)
valueType: Tmax (h)
Express the result in h but write the number alone.

Prompt line: Look up and report measured Tmax for this entry: Cc1cnc(-c2ccnc(C(C)(C)O)n2)cc1-n1c(C)cc(OCc2ncc(F)cc2F)c(Cl)c1=O (single isomer, unassigned)
Response line: 3

---

- testMethodNotes: Phase 1 SAD/MAD pharmacokinetics of oral ATI-450 in healthy subjects (incl. 80/120 mg BID extension)
- Format: in vivo, human
- measurementConditions: both sexes, human, plasma, oral, 80 mg, 80 mg BID, day 7; read-out: Cmax
valueType: Cmax

Prompt line: Look up Cmax of Cc1cnc(-c2ccnc(C(C)(C)O)n2)cc1-n1c(C)cc(OCc2ncc(F)cc2F)c(Cl)c1=O (single isomer, unassigned) and report it.
Response line: 389 ng/mL

---

- testMethodNotes: Phase 1 SAD/MAD pharmacokinetics of oral ATI-450 in healthy subjects (incl. 80/120 mg BID extension)
- Assay type: in vivo, human
- measurementConditions: both sexes, human, plasma, oral, 120 mg BID, day 7; read-out: Ctrough
- Experimental: Study Design. […] Single ascending dose (SAD) cohorts. […] Multiple ascending dose (MAD) cohorts. […] Blood Sampling and Bioanalysis. Two-milliliter blood samples were collected for PK analysis. […] The lower limit of quantification was 0.500 ng/mL. Pharmacokinetics. […] The method was minimally required to have intra- and inter-day precision (coefficients of variation) for pooled plasma quality control samples of ≤15% except at the lower limit of quantitation, where ≤20% was acceptable. […]
valueType: concentration at 7 day
Respond with the figure and its unit, in that order.

Prompt line: Entry Cc1cnc(-c2ccnc(C(C)(C)O)n2)cc1-n1c(C)cc(OCc2ncc(F)cc2F)c(Cl)c1=O (single isomer, unassigned) needs its concentration at 7 day filled in; supply it.
Response line: 156 ng/mL

---

- testMethodNotes: Phase 1 SAD/MAD pharmacokinetics of oral ATI-450 in healthy subjects (incl. 80/120 mg BID extension)
- Format: in vivo, human
- measurementConditions: both sexes, human, plasma, oral, 50 mg, 50 mg BID, day 1
valueType: AUC (µg·h/mL)
Write the value in µg·h/mL as a bare number.

Prompt line: Complete the entry with AUC for Cc1cnc(-c2ccnc(C(C)(C)O)n2)cc1-n1c(C)cc(OCc2ncc(F)cc2F)c(Cl)c1=O (single isomer, unassigned) [ATI-450]
Response line: 1.18
